Taken from patent US20260092093A1.

- testedOn: T1, hIL-18BP-hFc (human, UniProt O95998 31-194, limits assumed)
- T1 sequence (looked up): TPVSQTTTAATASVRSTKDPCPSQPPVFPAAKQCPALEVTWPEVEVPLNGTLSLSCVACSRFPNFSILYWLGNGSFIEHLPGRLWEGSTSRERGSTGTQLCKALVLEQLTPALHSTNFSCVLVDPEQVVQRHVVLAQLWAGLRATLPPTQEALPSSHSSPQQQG
- assayNotes: cell-based or functional assay
readout: EC50 Fold Change (+BP/-BP), hIL-18 reporter assay
Remember to put the unit after the number in your answer.

| binder | valueMeasured |
| --- | --- |
| IL-18 variant polypeptide M30 (ligand) YFPKLLSKLSVIRNLNDQVLFIDQGNRPLFEDMTDSDCRDNAPRTIFIISMYKHSTVRGMAVTISVKCEKISTLSCENKIISFKEMNPPDSIKDTKSDIIFFQRSVPGHDNKMQFESSSYEGYFLACEKERDLFKLILKKEDELGDRSIMFTVQNED | 0.68 fold |

Query: EC50 Fold Change (+BP/-BP), hIL-18 reporter assay; subject: IL-18 variant polypeptide WM2 (ligand) YFPKLRSKLSVIRNLNDQVLFIDQGNRPLFEDMTDSDCRDNAPRTIFIISMYKDSQPRGMAVTISVKCEKISTLSCENKIISFKEMNPPDNIKDTESDIIFFQRSVPGHDNKMQFESSSYEGYFLACEKERDLFKLILKKEDELGDRSIMFTVQNED
1.32 fold
